Target: SARM1 (ARM-SAM-TIR, full length SARM1) (Homo sapiens)
Assay: biochemical
Conditions: SARM1 IC50 (nM), ARM-SAM-TIR lysate 5 μg/mL from NRK1-HEK293T cells, 2 h pre-incubation, 5 uM NAD+, 2 hr room temperature
reported_metric: IC50

Consider the worked cases shown below.
Exercise: Report IC50 for N[C@H]1CC(Cc2ccc(Cl)nc2)C(=O)N(c2cc(-c3ccncc3)n[nH]2)C1 (single isomer, unassigned) [I-60* (peak 2)] please.
Solution: 101 to 500 nM

Exercise: # iterate: O=C1C(Cc2cnc(Cl)c(F)c2)CCCN1c1cc(-c2ccncc2)n[nH]1 (single isomer, unassigned) [I-66* (peak 2)]
Solution: 101 to 500 nM

Exercise: Another: N#Cc1ccc(CC2CCN(c3nnc(-c4ccncc4)[nH]3)C2=O)cc1F (single isomer, unassigned) [I-26* (peak 1)]
Solution: 101 to 500 nM

Others:
Exercise: What value of IC50 has been recorded for this entry: O=C1C(Cc2ccc(Cl)cc2)CNCCN1c1nc(-c2ccncc2)n[nH]1 (stereo not shown) [Compound I-38]
Solution: 501 to 1000 nM

Exercise: Next molecule up: O=C1C(Cc2ccc(F)cc2)CCN1c1nnc(-c2ccncc2)[nH]1 (single isomer, unassigned) [I-7* (peak 1)]
Solution: 101 to 500 nM

Exercise: Record: N#Cc1cc(CC2CCN(c3cc(-c4ccncc4)n[nH]3)C2=O)ccc1F (stereo not shown) [Compound I-116]
Solution: 101 to 500 nM

Exercise: // query: O=C1C(Cc2ccc(Cl)cc2)CCCN1c1cc(-c2ccncc2)n[nH]1 (single isomer, unassigned) [I-19* (peak 1)]
Solution: < 50 nM

----------
Target: SARM1 (ARM-SAM-TIR, full length SARM1) (Homo sapiens)
Assay: biochemical
Settings: SARM1 IC50 (nM), ARM-SAM-TIR lysate 5 μg/mL from NRK1-HEK293T cells, 2 h pre-incubation, 5 uM NAD+, 2 hr room temperature
reported_metric: IC50

Exercise: Which value of IC50 has been reported for N#Cc1c(-c2ccncc2)n[nH]c1N1CCCC(Cc2ccc(Cl)cc2)C1=O (stereo not shown) in the records?
Solution: 101 to 500 nM

---
Exercise: Bench note: what IC50 did N#Cc1ccc(CC2CCCN(c3cc(-c4ccncc4)n[nH]3)C2=O)cn1 (stereo not shown) show?
Solution: 101 to 500 nM

Exercise: Now consider O=C1C(Cc2cnc(Cl)c(F)c2)CCCN1c1cc(-c2ccncc2)n[nH]1 (single isomer, unassigned) [I-66* (peak 1)] .
Solution: < 50 nM

Exercise: Quick one: O=C1C(Cc2ccc(Cl)nc2)CCCCN1c1cc(-c2ccncc2)n[nH]1 (stereo not shown) [Compound I-40]
Solution: 101 to 500 nM

Exercise: Likewise for O=C1C(Cc2ccc(Cl)nc2)CCN1c1[nH]nc(-c2ccncc2)c1Cl (single isomer, unassigned) [I-34* (peak 1)] ?
Solution: < 50 nM

Exercise: Repeat for the following molecule: O=C1C(Cc2ccc(F)c(F)c2)CCN1c1nnc(-c2ccncc2)[nH]1 (single isomer, unassigned) [I-11* (peak 1)]
Solution: < 50 nM

Exercise: Now try O=C1C(Cc2ccc(C(F)(F)F)nc2)CCCN1c1nc(-c2ccncc2)n[nH]1 (stereo not shown) .
Solution: 101 to 500 nM

----------
Target: SARM1 (ARM-SAM-TIR, full length SARM1) (Homo sapiens, UniProt Q6SZW1)
Sequence (Q6SZW1 with tags, fused parts or gaps): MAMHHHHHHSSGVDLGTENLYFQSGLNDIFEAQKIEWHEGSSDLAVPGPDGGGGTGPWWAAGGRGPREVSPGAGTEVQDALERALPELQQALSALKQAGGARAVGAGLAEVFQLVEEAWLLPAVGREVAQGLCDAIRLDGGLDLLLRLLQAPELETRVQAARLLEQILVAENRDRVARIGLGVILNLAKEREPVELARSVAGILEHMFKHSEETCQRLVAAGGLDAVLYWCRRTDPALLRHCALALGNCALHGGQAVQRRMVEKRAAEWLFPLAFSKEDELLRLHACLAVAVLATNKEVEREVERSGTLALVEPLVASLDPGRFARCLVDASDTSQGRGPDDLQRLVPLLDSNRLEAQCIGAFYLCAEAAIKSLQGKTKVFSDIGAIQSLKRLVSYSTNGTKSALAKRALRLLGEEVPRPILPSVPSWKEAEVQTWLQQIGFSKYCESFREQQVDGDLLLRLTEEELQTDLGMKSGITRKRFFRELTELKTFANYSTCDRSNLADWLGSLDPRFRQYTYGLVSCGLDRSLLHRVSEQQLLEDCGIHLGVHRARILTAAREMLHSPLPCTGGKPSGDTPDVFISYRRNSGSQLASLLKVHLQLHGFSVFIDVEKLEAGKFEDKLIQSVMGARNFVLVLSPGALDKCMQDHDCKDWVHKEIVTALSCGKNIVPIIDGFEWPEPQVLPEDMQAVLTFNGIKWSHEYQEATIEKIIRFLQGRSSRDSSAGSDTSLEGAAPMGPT
Assay: biochemical
Conditions: SARM1 IC50 (nM), ARM-SAM-TIR lysate 5 μg/mL from NRK1-HEK293T cells, 2 h pre-incubation, 5 uM NAD+, 2 hr room temperature
# IC50 annotations

Exercise: Please give the measured IC50 for this compound: O=C1C(Cc2ccc(Cl)cc2)CCCN1c1nnc(-c2ccncc2)[nH]1 (single isomer, unassigned) [I-5* (peak 1)]
Solution: < 50 nM

Exercise: Next: O=C1C(Cc2ccc(Cl)nc2)CCN1c1[nH]nc(-c2ccncc2)c1Cl (stereo not shown) [Compound I-34]
Solution: < 50 nM

Exercise: Now the same for O=C1C(Cc2ccc(F)c(F)c2)CCCN1c1nnc(-c2ccncc2)[nH]1 (stereo not shown) [Compound I-13]
Solution: < 50 nM

Exercise: Another compound: O=C1C(Cc2ccc(F)c(F)c2)CCN1c1nnc(-c2ccncc2)[nH]1 (single isomer, unassigned) [I-11* (peak 2)]
Solution: 51 to 100 nM

Exercise: Proceed to [2H]C([2H])(c1ccc(Cl)nc1)C1([2H])C(=O)N(c2cc(-c3ccncc3)n[nH]2)C([2H])([2H])C([2H])([2H])C1([2H])[2H] (single isomer, unassigned) [I-79* (peak 1)]
Solution: < 50 nM

***
Exercise: What IC50 value was documented for this compound, Cc1c(-c2ccncc2)n[nH]c1N1CCCC(Cc2ccc(Cl)cc2)C1=O (stereo not shown) [Compound I-50] ?
Solution: > 1000 nM

Exercise: What about O=C1C(Cc2ccc(F)nc2)CCN1c1[nH]nc(-c2ccncc2)c1F (stereo not shown) [Compound I-33] ?
Solution: < 50 nM

----------
Documented IC50 across a set of compounds
Biological target: SARM1 (ARM-SAM-TIR, full length SARM1) (Homo sapiens, UniProt Q6SZW1)
Experiment: biochemical
Settings: SARM1 IC50 (nM), ARM-SAM-TIR lysate 5 μg/mL from NRK1-HEK293T cells, 2 h pre-incubation, 5 uM NAD+, 2 hr room temperature

Exercise: Bench note: what IC50 did O=C1C(Cc2ccc(F)nc2)CCN1c1cc(-c2ccncc2)n[nH]1 (single isomer, unassigned) [I-67* (peak 1)] show?
Solution: 51 to 100 nM

***
Exercise: Would you mind telling me what IC50 value was observed for Cc1c(-c2ccncc2)n[nH]c1N1CCC(Cc2ccc(Cl)nc2)C1=O (single isomer, unassigned) [I-48* (peak 1)] ?
Solution: 101 to 500 nM

Exercise: Next up: O=C1C(Cc2ccc(F)c(F)c2)CCN1c1cc(-c2ccncc2)n[nH]1 (stereo not drawn) [Compound I-16]
Solution: < 50 nM

Exercise: Another compound: N#Cc1c(-c2ccncc2)n[nH]c1N1CCC(Cc2ccc(F)c(F)c2)C1=O (stereo not drawn) [Compound I-53]
Solution: 51 to 100 nM

Exercise: // query: O=C1C(Cc2ccc(Cl)nc2)CCCN1c1nnc(-c2ccncc2)[nH]1 (single isomer, unassigned) [I-55* (peak 1)]
Solution: 51 to 100 nM

Exercise: Cool, now Cc1c(-c2ccncc2)n[nH]c1N1CCC(Cc2ccc(F)c(F)c2)C1=O (single isomer, unassigned) [I-49* (peak 2)]
Solution: 51 to 100 nM

Exercise: Another compound: CN1CCN(c2cc(-c3ccncc3)n[nH]2)C(=O)[C@@H]1Cc1ccc(Cl)cc1 [Compound I-2-a]
Solution: > 1000 nM

Exercise: Another compound: O=C1C(Cc2ccc(F)nc2)CCN1c1cc(-c2ccncc2)n[nH]1 (stereo not drawn) [Compound I-67]
Solution: < 50 nM

Exercise: Also O=C1C(Cc2ccc(F)nc2)CCN1c1nnc(-c2ccncc2)[nH]1 (stereo not drawn) [Compound I-39] , if possible.
Solution: 101 to 500 nM

Exercise: Quick one: O=C1C(Cc2ccc(F)c(F)c2)CCCN1c1cc(-c2ccncc2)n[nH]1 (stereo not drawn) [Compound I-22]
Solution: < 50 nM

Exercise: Thanks! And N#Cc1ccc(CC2CCN(c3nc(-c4ccncc4)n[nH]3)C2=O)cc1 (stereo not drawn) [Compound I-115] ?
Solution: 501 to 1000 nM
